For each record, write down the corresponding inhibition at 50 µg/mL.
- Test system: Colletotrichum lindemuthianum
- procedure details: Antifungal activity against Colletotrichum lindemuthianum assessed as inhibition of mycelium growth at 50 ug/ml relative to control
- Format: functional
Give bare numbers, in %.

Previously resolved entries follow.
{"compound smiles": "COc1ccc(CCNC(=O)/C=C(\\c2ccncc2)c2ccc(C)c(C)c2)cc1OC", "assay system": "Colletotrichum lindemuthianum", "inhibition at 50 µg/mL, %": 28.4}
{"compound smiles": "Cc1ccc(/C(=C/C(=O)NCCc2ccc(O)cc2)c2ccnc(Cl)c2)cc1", "assay system": "Colletotrichum lindemuthianum", "inhibition at 50 µg/mL, %": 16.4}
{"compound smiles": "Cc1ccc(/C(=C/C(=O)NCCc2ccccc2)c2ccnc(Cl)c2)cc1C", "assay system": "Colletotrichum lindemuthianum", "inhibition at 50 µg/mL, %": 56}
{"compound smiles": "Cc1ccc(/C(=C/C(=O)NCCc2ccccc2)c2ccncc2)cc1C", "assay system": "Colletotrichum lindemuthianum", "inhibition at 50 µg/mL, %": 17.2}
{"compound smiles": "Cc1ccc(/C(=C/C(=O)NCCc2ccc(O)cc2)c2ccncc2)cc1", "assay system": "Colletotrichum lindemuthianum", "inhibition at 50 µg/mL, %": 28.4}
{"compound smiles": "Cc1ccc(/C(=C/C(=O)NCCc2ccccc2)c2ccnc(Cl)c2)c(C)c1", "assay system": "Colletotrichum lindemuthianum", "inhibition at 50 µg/mL, %": 47}

Hello, I would appreciate it if you could give inhibition at 50 µg/mL for each entry below.
1. Cc1ccc(/C(=C/C(=O)NCCc2ccc(O)cc2)c2ccncc2)cc1C
2. Cc1ccc(/C(=C/C(=O)NCCc2ccc(O)cc2)c2ccnc(Cl)c2)cc1C
3. CCc1ccc(/C(=C/C(=O)NCCc2ccc(O)cc2)c2ccnc(Cl)c2)cc1
4. COc1ccc(CCNC(=O)/C=C(/c2ccc(C)cc2)c2ccnc(Cl)c2)cc1OC
5. COc1ccc(CCNC(=O)/C=C(/c2ccc(C(C)(C)C)cc2)c2ccnc(Cl)c2)cc1OC

Output:
38.8
35.8
24.6
55.2
22.4
